System: NCI-H2228 alectinib-DTP
protocol-notes: cell viability relative to vehicle (fraction of vehicle); NCI-H2228 is an ALK-positive lung cancer line and DTP means drug-tolerant persister; higher = less growth inhibition
run-parameters: 100 nM; treatment time 6 days
Where a name gives a salt, the structure may show the parent alone. The full ranking holds about 2,800 compounds; the median of “cell viability relative to vehicle” is about 0.98, and the lowest 2% start at about 0.45. Only a selection was taken, and the lowest values are over-represented in it overall.
Please respond with reported cell viability for every item in the list.

Exercise: // lookup cell viability | system=NCI-H2228 alectinib-DTP | key= C=CCSC[C@H](N)C(=O)O
Solution: 1.06

Exercise: // lookup cell viability | system=NCI-H2228 alectinib-DTP | key= C[C@@H]1O[C@@H](O[C@@H]2[C@H](O)[C@@H](O)[C@H](O[C@H]3CC[C@@]4(C)C(CC[C@]5(C)C4C=C[C@]46OC[C@@]7(CCC(C)(C)CC74)[C@@H](O)C[C@]65C)C3(C)C)O[C@@H]2CO[C@@H]2O[C@H](CO)[C@@H](O)[C@H](O)[C@H]2O)[C@H](O)[C@H](O)[C@H]1O (stereo partly drawn)
Solution: 0.993

Exercise: // lookup cell viability | system=NCI-H2228 alectinib-DTP | key= C[C@H](NC(=O)CNC(=O)c1cccc(Cl)c1)c1ccccc1
Solution: 0.957

Exercise: // lookup cell viability | system=NCI-H2228 alectinib-DTP | key= CC(C)n1ncnc1-c1cn2c(n1)-c1ccc(O[C@@H](C)C(N)=O)cc1OCC2
Solution: 0.717

Exercise: // lookup cell viability | system=NCI-H2228 alectinib-DTP | key= S=C(N/N=C1/CCCc2cccnc21)N1CCN(c2ccccn2)CC1
Solution: 1.09

Exercise: // lookup cell viability | system=NCI-H2228 alectinib-DTP | key= COc1ccccc1C(=O)Nc1cc2c(cc1N1CCCCC1)n(C)c(=O)n2C
Solution: 0.977

Exercise: // lookup cell viability | system=NCI-H2228 alectinib-DTP | key= N[C@@H](CSCCB(O)O)C(=O)O
Solution: 0.835

Exercise: // lookup cell viability | system=NCI-H2228 alectinib-DTP | key= COc1ccc(C[C@H](NC(=O)[C@H](C)NC(=O)CN2CCOCC2)C(=O)N[C@@H](Cc2ccccc2)C(=O)C2(C)CO2)cc1 (stereo in doubt)
Solution: 1.03

Exercise: // lookup cell viability | system=NCI-H2228 alectinib-DTP | key= Cn1cc(-c2cnn3c(N)c(Br)c([C@H]4CCCNC4)nc23)cn1
Solution: 0.907

Exercise: // lookup cell viability | system=NCI-H2228 alectinib-DTP | key= CCC(=O)N1CCOc2c(cc(-c3ccc(OC)c(OC)c3)cc2OC[C@H]2CCCN(C)C2)C1 [I-CBP112 hydrochloride]
Solution: 0.963

Exercise: // lookup cell viability | system=NCI-H2228 alectinib-DTP | key= C/C(=N\NC(=S)N1CCC1)c1ccccn1
Solution: 0.362

Exercise: // lookup cell viability | system=NCI-H2228 alectinib-DTP | key= CC(C)C[C@H](NC(=O)[C@@H](O)[C@H](N)Cc1ccccc1)C(=O)O [Ubenimex]
Solution: 1.05

Exercise: // lookup cell viability | system=NCI-H2228 alectinib-DTP | key= CC(C)C[C@H](NC(=O)[C@@H](NC(=O)c1cccc(-c2ccccc2)n1)[C@@H](C)O)B(O)O
Solution: 0.301

Exercise: // lookup cell viability | system=NCI-H2228 alectinib-DTP | key= COc1ccc(-c2nc(-c3cc(C(F)(F)F)cc(C(F)(F)F)c3)n(Cc3ccc(C(N)=O)cc3)c2-c2ccc(OC)cc2)cc1
Solution: 0.817

Exercise: // lookup cell viability | system=NCI-H2228 alectinib-DTP | key= Nc1ccccc1C(=O)C[C@H](N)C(=O)O
Solution: 0.987

Exercise: // lookup cell viability | system=NCI-H2228 alectinib-DTP | key= O=C1c2cccc(O)c2C(=O)c2c(O)cccc21
Solution: 0.878

Exercise: // lookup cell viability | system=NCI-H2228 alectinib-DTP | key= Cc1c(CN2CCN(C(=O)[C@H](C)O)CC2)sc2c(N3CCOCC3)nc(-c3cnc(N)nc3)nc12
Solution: 0.434

Exercise: // lookup cell viability | system=NCI-H2228 alectinib-DTP | key= CCC(=O)O[C@]1(C(=O)CO)CC[C@H]2[C@@H]3CCC4=CC(=O)CC[C@]4(C)[C@H]3CC[C@@]21C [17 alpha-propionate]
Solution: 0.936

Exercise: // lookup cell viability | system=NCI-H2228 alectinib-DTP | key= C[C@H](O)[C@@H](O)[C@@H](O)[C@H](O)C=O [L-(-)-Fucose]
Solution: 1.09

Exercise: // lookup cell viability | system=NCI-H2228 alectinib-DTP | key= CC(C)=CCC[C@](C)(O)[C@H]1CC[C@]2(C)[C@@H]1[C@H](O)C[C@@H]1[C@@]3(C)CC[C@H](O)C(C)(C)[C@@H]3CC[C@]12C [(20S)-Protopanaxadiol]
Solution: 0.908

Exercise: // lookup cell viability | system=NCI-H2228 alectinib-DTP | key= CC(C)C[C@H](NC(=O)CNC(=O)c1cc(Cl)ccc1Cl)B(O)O
Solution: 0.28

Exercise: // lookup cell viability | system=NCI-H2228 alectinib-DTP | key= CN1CCc2c(c3ccccc3n2Cc2ccc(C(=O)NO)cc2)C1 [Tubastatin A HCl]
Solution: 0.892

Exercise: // lookup cell viability | system=NCI-H2228 alectinib-DTP | key= Cc1c(CN2CCN(S(C)(=O)=O)CC2)sc2c(N3CCOCC3)nc(-c3cnc(N)nc3)nc12
Solution: 0.514
